Target: UniProt:P08913
Sequence (P08913 whole entry): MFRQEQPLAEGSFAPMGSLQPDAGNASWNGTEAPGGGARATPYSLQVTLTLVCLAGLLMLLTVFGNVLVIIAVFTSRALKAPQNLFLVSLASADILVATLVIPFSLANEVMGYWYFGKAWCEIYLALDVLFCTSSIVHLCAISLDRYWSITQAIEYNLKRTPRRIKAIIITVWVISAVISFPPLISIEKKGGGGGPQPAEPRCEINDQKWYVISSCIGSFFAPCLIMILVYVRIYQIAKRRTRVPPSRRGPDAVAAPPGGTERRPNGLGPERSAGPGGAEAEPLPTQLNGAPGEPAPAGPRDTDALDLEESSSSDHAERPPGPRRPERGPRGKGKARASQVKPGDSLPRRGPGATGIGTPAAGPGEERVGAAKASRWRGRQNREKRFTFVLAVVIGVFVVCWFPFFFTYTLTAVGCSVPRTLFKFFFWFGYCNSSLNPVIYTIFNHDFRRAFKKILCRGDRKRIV
Test: ARα2A radioligand
Type: binding
Details: ARα2A binding Ki, competition with 3H-Rauwolscinein; concentration response
Please respond with reported pKi for every item in the list.
// pKi: -log10(molar conc.)

**Query** What value of pKi has been reported for the following compound? COc1ccccc1Nc1ccc2c(c1)C(c1ccccc1F)=NC(C)C(=O)N2 (centres unmarked) [Compound 17]
**Result** 5.69

**Query** Same question, COC(=O)c1ccc(Nc2ccc3c(c2)C(c2ccccc2F)=NC(C)C(=O)N3)cc1 (centres unmarked) [Compound 11] this time
**Result** 5.65

**Query** Same question, Cc1cccc(Nc2ccc3c(c2)C(c2ccccc2F)=NC(C)C(=O)N3)c1 (centres unmarked) [Compound 18] this time
**Result** 5.68

**Query** Same question, CSc1ccc(Nc2ccc3c(c2)C(c2ccccc2F)=NC(C)C(=O)N3)cc1 (centres unmarked) [Compound 7] this time
**Result** 5.48

**Query** Same question, CC1N=C(c2ccccc2F)c2cc(Nc3ccc(Cl)cc3)ccc2NC1=O (centres unmarked) [Compound 5] this time
**Result** 5.68

**Query** Same question, CC1N=C(c2ccccc2F)c2cc(Nc3ccccc3F)ccc2NC1=O (centres unmarked) [Compound 14] this time
**Result** 5.65

**Query** Same question, CC1N=C(c2ccccc2F)c2cc(Nc3ccccc3)ccc2NC1=O (centres unmarked) [Compound 2] this time
**Result** 5.41

**Query** Same question, COc1ccc(Nc2ccc3c(c2)C(c2ccccc2F)=NC(C)C(=O)N3)cc1 (centres unmarked) [Compound 4] this time
**Result** 5.68

###

Biological target: ARα2B (Homo sapiens, UniProt P18089)
Sequence (P18089 whole entry): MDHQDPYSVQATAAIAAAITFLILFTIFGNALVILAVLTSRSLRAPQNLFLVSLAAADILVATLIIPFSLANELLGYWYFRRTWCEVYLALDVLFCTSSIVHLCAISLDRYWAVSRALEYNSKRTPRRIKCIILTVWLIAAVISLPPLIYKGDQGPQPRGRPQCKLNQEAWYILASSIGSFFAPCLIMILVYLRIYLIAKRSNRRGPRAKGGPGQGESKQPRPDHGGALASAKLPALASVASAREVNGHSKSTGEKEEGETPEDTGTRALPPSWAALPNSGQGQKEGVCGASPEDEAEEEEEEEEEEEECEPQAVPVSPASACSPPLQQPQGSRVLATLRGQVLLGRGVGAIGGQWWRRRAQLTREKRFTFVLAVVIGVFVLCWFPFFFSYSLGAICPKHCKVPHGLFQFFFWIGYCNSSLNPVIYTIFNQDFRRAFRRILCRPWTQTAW
Assay: ARα2B radioligand
Type: binding
Conditions: read-out: ARα2B binding (% inhibition at 10 μM)
outcome-measure: inhibition at 10 µM (%)
Numbers only here, please. The scale is %.

**Query** What inhibition at 10 µM appears in the records for this compound with ARα2B (Homo sapiens, UniProt P18089)? CC1N=C(c2ccccc2F)c2cc(Nc3ccc(S(C)(=O)=O)cc3)ccc2NC1=O (stereo not shown) [Compound 8]
**Result** -5

**Query** Same question, CCc1ccccc1Nc1ccc2c(c1)C(c1ccccc1F)=NC(C)C(=O)N2 (stereo not shown) [Compound 16] this time
**Result** -2

**Query** Same question, CC1N=C(c2ccccc2F)c2cc(Nc3ccccc3)ccc2NC1=O (stereo not shown) [Compound 2] this time
**Result** 90

**Query** Same question, CC1N=C(c2ccccc2F)c2cc(Nc3ccc(C(F)(F)F)cc3)ccc2NC1=O (stereo not shown) [Compound 12] this time
**Result** 38

**Query** Same question, CC1N=C(c2ccccc2F)c2cc(NCc3ccccc3)ccc2NC1=O (stereo not shown) [Compound 24] this time
**Result** 46

**Query** Same question, CC1N=C(c2ccccc2F)c2cc(Nc3ccccc3F)ccc2NC1=O (stereo not shown) [Compound 14] this time
**Result** 82

**Query** Same question, COc1ccc(Nc2ccc3c(c2)C(c2ccccc2F)=NC(C)C(=O)N3)cc1 (stereo not shown) [Compound 4] this time
**Result** 41

**Query** Same question, CC1N=C(c2ccccc2F)c2cc(Nc3ccc([N+](=O)[O-])cc3)ccc2NC1=O (stereo not shown) [Compound 6] this time
**Result** 36

**Query** Same question, Cc1ccc(Nc2ccc3c(c2)C(c2ccccc2F)=NC(C)C(=O)N3)c(C)c1 (stereo not shown) [Compound 20] this time
**Result** 33

**Query** Same question, Cc1cccc(Nc2ccc3c(c2)C(c2ccccc2F)=NC(C)C(=O)N3)c1 (stereo not shown) [Compound 18] this time
**Result** 87

**Query** Same question, Cc1ccc(Nc2ccc3c(c2)C(c2ccccc2F)=NC(C)C(=O)N3)cc1 (stereo not shown) [Compound 3] this time
**Result** 61

**Query** Same question, CC1N=C(c2ccccc2F)c2cc(N(C)C)ccc2NC1=O (stereo not shown) [Compound 27] this time
**Result** 45

**Query** Same question, CC1N=C(c2ccccc2F)c2cc(Nc3ccccc3C#N)ccc2NC1=O (stereo not shown) [Compound 13] this time
**Result** 29

**Query** Same question, CC1N=C(c2ccccc2F)c2cc(Nc3ccc(C#N)cc3)ccc2NC1=O (stereo not shown) [Compound 9] this time
**Result** 23

**Query** Same question, CC1N=C(c2ccccc2F)c2cc(N3CCCCC3)ccc2NC1=O (stereo not shown) [Compound 23] this time
**Result** 61

**Query** Same question, CSc1ccc(Nc2ccc3c(c2)C(c2ccccc2F)=NC(C)C(=O)N3)cc1 (stereo not shown) [Compound 7] this time
**Result** 41

**Query** Same question, CC1N=C(c2ccccc2F)c2cc(Nc3ccc(Cl)cc3)ccc2NC1=O (stereo not shown) [Compound 5] this time
**Result** 81

**Query** Same question, CC1N=C(c2ccccc2F)c2cc(N3CCOCC3)ccc2NC1=O (stereo not shown) [Compound 22] this time
**Result** 27

**Query** Same question, CC1N=C(c2ccccc2F)c2cc(NC3CCCCC3)ccc2NC1=O (stereo not shown) [Compound 26] this time
**Result** 64

**Query** Same question, C[C@H]1N=C(c2ccccc2F)c2cc(Br)ccc2NC1=O [Compound 1] this time
**Result** -6

**Query** Same question, CC1N=C(c2ccccc2F)c2cc(N(C)c3ccccc3)ccc2NC1=O (stereo not shown) [Compound 21] this time
**Result** 47

**Query** Same question, COC(=O)c1ccc(Nc2ccc3c(c2)C(c2ccccc2F)=NC(C)C(=O)N3)cc1 (stereo not shown) [Compound 11] this time
**Result** 44
